Measured values drawn from patent US20120059162A1 for this set.

# assayed-system: UniProt P33981
# Sequence (P33981 1-857): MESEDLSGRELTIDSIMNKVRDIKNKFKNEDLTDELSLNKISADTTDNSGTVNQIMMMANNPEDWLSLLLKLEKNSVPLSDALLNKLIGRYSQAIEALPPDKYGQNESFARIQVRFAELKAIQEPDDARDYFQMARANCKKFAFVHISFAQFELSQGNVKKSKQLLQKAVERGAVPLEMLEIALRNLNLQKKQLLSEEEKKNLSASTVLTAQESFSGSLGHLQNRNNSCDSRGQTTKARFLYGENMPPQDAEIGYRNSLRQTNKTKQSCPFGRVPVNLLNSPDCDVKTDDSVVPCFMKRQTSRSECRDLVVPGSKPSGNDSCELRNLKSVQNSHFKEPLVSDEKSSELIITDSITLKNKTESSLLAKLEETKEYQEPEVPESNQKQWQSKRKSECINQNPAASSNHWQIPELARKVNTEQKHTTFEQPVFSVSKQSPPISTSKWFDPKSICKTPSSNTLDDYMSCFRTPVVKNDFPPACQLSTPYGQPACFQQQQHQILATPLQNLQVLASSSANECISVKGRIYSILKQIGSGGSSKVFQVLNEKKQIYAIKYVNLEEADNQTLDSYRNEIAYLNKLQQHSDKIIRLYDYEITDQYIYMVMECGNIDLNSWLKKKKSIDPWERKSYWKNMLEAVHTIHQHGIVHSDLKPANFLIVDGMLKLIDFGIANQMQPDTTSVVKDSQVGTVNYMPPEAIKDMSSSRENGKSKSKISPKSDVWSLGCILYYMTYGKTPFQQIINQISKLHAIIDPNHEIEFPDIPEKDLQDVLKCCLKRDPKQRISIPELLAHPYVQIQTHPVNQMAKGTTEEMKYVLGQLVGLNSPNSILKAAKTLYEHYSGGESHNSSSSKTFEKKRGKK
# experimental-details: TTK assay: screening of TTK kinase activity suppressing action using p38 MAPK peptide
# Assay type: biochemical
# conditions-used: p38 MAPK peptide substrate; read-out: TTK IC50
measured-endpoint: IC50 (nM)
Kindly answer with a numeric value in nM, unit omitted.

Field: example entries. Status: answers known.
molecule	measured-endpoint	value-units	recorded-number
CC(C)CN(CC1CC1)c1cc(NCC2CCOCC2)c2ncc(-c3ccc(C(=O)NC4CC4)cc3)n2n1	IC50	nM	5.4
O=C(NC1CC1)c1ccc(-c2cnc3c(NCC(F)F)cc(NC4CCCCC4)nn23)cc1	IC50	nM	3.5
CC(C)(O)CNc1nc(-c2ccc(C#N)cc2)cn2c(-c3ccc(C(=O)NC4CC4)cc3)cnc12	IC50	nM	12.8
O=C(NC1CC1)c1ccc(-c2cnc3c(NCC4CCOCC4)cc(N4CCCC4=O)nn23)cc1	IC50	nM	22
O=C(NC1CC1)c1ccc(-c2cnc3c(NCC4CCC4)cc(NC4CCCCC4)nn23)cc1	IC50	nM	7.4

Lab note: molecule `N#Cc1ccc(-c2cn3c(-c4ccc(C(=O)NC5CC5)cc4)cnc3c(NCC(F)F)n2)cc1` tested on UniProt P33981; recorded IC50 was 8.3

Lab note: molecule `O=C(NC1CC1)c1ccc(-c2cnc3c(NC[C@H]4CC[C@H](O)CC4)cc(NC4CCCCC4)nn23)cc1` tested on UniProt P33981; recorded IC50 was 3.3

Lab note: molecule `CC(C)C(C)(C)Nc1cc(NCC2CCOCC2)c2ncc(-c3ccc(C(=O)NC4CC4)cc3)n2n1` tested on UniProt P33981; recorded IC50 was 6

Lab note: molecule CC(Nc1cc(NCC2CCOCC2)c2ncc(-c3ccc(C(=O)NC4CC4)cc3)n2n1)C(C)(C)C (stereo not drawn) tested on UniProt P33981; recorded IC50 was 4.6

Lab note: molecule `O=C(NC1CC1)c1ccc(-c2cnc3c(NCc4ccco4)cc(NC4CCCCC4)nn23)cc1` tested on UniProt P33981; recorded IC50 was 3.6
